Target: tetanus neurotoxin (TeNT), authentic tetanus holotoxin (Clostridium tetani, UniProt P04958 2-1315)
Sequence (P04958 2-457 limits assumed, chain 1 of 2): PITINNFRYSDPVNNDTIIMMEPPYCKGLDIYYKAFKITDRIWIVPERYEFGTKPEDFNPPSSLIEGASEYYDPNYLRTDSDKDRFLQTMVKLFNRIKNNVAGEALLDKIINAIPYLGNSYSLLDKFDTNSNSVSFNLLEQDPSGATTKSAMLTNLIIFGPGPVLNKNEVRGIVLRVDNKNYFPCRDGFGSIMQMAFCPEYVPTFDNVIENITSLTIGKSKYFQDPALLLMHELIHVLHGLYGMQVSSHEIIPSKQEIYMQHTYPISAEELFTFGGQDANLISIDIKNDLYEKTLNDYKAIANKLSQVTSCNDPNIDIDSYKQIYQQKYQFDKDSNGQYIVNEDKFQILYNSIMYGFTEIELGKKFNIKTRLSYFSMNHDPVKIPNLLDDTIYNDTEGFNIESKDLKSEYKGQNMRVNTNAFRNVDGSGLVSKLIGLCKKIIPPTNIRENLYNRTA
Sequence (P04958 458-1315 limits assumed, chain 2 of 2): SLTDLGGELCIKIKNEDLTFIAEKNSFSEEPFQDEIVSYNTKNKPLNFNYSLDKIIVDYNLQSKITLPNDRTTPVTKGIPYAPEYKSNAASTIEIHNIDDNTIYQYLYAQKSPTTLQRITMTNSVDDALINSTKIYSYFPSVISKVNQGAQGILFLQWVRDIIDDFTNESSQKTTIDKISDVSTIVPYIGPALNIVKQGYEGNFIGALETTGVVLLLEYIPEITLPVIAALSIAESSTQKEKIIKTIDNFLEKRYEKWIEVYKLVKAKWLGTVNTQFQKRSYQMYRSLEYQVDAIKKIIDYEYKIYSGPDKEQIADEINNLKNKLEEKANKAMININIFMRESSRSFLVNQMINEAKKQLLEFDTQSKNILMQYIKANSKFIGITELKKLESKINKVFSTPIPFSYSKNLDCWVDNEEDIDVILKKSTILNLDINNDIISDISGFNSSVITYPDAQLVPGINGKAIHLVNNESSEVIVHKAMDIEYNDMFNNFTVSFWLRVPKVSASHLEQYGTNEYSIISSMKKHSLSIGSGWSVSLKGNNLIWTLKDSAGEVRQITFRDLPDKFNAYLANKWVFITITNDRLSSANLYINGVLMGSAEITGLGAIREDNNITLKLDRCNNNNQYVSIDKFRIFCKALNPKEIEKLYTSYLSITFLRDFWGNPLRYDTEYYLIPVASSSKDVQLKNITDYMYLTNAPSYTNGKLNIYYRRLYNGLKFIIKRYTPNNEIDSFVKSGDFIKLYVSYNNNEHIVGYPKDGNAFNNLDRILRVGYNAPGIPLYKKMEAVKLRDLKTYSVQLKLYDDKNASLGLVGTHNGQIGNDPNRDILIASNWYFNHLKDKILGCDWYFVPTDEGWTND
Test Protocol: GT1b-TeNT inhibition ELISA
# cutoff 0.3 A450 applies to minimal absorbance value (GT1b-TeNT inhibition); >= gives class 1, < gives class 0

| Binder | Category |
| --- | --- |
| SVT06L (VHH) VHH: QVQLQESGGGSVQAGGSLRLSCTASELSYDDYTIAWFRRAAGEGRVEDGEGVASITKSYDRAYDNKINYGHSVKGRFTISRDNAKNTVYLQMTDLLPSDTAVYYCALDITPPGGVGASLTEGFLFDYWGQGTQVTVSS | class 0 |
| SVT16L (VHH) VHH: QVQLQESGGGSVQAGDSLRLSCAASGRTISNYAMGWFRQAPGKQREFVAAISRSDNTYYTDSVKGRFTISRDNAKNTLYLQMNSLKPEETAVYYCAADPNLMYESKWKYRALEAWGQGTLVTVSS | class 0 |
| SVT15-3FW4M-GS2-SVG13M4-H6 (bispecific antibody) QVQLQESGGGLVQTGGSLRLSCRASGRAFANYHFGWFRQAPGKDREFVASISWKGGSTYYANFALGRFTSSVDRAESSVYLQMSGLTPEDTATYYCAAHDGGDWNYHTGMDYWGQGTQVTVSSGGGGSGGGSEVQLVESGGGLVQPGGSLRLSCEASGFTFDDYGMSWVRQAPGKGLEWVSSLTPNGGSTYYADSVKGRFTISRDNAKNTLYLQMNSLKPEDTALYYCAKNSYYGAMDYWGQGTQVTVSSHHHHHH | class 0 |
| SVT15L-3FW4M (VHH) VHH: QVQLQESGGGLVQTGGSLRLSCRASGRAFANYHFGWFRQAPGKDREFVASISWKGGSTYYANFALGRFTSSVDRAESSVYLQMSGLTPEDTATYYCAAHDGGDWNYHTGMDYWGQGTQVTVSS | class 0 |
| SVT02-GS2-SVG13M4-H6 (bispecific antibody) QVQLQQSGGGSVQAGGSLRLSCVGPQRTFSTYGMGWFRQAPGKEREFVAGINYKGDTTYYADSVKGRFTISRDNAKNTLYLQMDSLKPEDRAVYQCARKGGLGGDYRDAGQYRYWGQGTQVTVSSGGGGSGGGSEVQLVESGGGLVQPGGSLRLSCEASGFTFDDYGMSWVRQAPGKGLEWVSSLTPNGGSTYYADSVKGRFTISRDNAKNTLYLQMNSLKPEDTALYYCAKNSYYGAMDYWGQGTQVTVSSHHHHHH | class 1 |

src = patent US20240376185A1
